# System: NOMO1
# Assay Protocol: cell viability relative to DMSO control; higher = less cytotoxic
# Setup Conditions: RPMI 5 mM glucose + 10% dialyzed FBS; 48 h; 0.19 µM
Just a reminder that ties go to label 0: only cell viability strictly below 90% counts as label 1.

Solved entries (count: 4):
# Molecule, Assay Target, Class
data = [
    ("N[C@@H]1CONC1=O", "NOMO1", "label 0"),
    ("C=CC(=O)Nc1cc2c(Nc3ccc(F)c(Cl)c3)ncnc2cc1OCCCN1CCOCC1", "NOMO1", "label 0"),
    ("Oc1nc(-c2ccc(C(F)(F)F)cc2)nc2c1CSCC2", "NOMO1", "label 0"),
    ("COC1=C(OCCCN2CCOCC2)C=CC\\3=C1/N=C(/NC(=O)C4=CN=C(N)N=C4)N5CC/N=C35", "NOMO1", "label 1"),
]

In: Below 90% on cell viability? Entry `C[C@@H]1CCO[C@H]2CN\3/C=C(/C(=O)NCC4=C(F)C=C(F)C=C4)C(=O)\C(=C3C(=O)N12)O`
Out: label 1
